Assignment: determine reported pKd for the given binders.
Target: Cbk1(W444A)–Mob2 complex (S. cerevisiae, UniProt P53894 251-756; P43563 1-287, W444A)
Sequence (P53894 251-756 W444A, chain 1 of 2): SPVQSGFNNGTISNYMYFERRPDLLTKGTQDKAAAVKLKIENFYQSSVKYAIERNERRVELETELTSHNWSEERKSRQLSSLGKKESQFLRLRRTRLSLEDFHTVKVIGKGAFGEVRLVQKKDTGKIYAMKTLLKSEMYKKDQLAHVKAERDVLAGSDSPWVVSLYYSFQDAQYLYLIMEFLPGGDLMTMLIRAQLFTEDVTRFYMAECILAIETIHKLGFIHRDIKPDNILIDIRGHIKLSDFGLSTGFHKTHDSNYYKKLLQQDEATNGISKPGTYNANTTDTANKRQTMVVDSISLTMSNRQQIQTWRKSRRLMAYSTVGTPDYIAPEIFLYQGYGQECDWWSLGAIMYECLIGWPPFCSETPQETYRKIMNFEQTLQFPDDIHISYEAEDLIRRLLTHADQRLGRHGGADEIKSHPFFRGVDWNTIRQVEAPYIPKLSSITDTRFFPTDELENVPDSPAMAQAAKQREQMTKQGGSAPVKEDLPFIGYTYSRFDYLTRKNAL
Sequence (P43563 45-287, chain 2 of 2): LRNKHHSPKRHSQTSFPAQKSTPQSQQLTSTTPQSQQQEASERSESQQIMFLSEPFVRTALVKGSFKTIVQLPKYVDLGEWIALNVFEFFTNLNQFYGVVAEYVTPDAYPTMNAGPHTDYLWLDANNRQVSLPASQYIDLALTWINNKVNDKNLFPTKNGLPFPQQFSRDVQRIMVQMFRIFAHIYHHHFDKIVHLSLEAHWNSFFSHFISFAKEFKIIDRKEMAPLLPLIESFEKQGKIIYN
Experiment: FP
Non-standard residues stand in square brackets, D forms with d. No end group written: not given here. carboxyfluorescein = carboxyfluorescein label; pT = C[C@@H](OP(=O)(O)O)[C@H](N)C(=O)O
Give bare numbers, as −log10 of the molar value.

These recorded examples may help you get a feel for the data.
carboxyfluorescein-TTEQSDFKFP [pepSSD1, carboxyfluorescein-labelled]: 4.24
carboxyfluorescein-GSGSIIVTTNSANGGYQFP [pepAce2, carboxyfluorescein-labelled]: 4.72

Next, consider the following binder.
query: Requested read-out: pKd. Entry: IGY[pT]YSRFDY-carboxyfluorescein [pepHM-P, carboxyfluorescein-labelled]
result: 4.62
